# target: Mu-type opioid receptor (Homo sapiens) (UniProt P35372)
# Sequence (P35372 whole entry): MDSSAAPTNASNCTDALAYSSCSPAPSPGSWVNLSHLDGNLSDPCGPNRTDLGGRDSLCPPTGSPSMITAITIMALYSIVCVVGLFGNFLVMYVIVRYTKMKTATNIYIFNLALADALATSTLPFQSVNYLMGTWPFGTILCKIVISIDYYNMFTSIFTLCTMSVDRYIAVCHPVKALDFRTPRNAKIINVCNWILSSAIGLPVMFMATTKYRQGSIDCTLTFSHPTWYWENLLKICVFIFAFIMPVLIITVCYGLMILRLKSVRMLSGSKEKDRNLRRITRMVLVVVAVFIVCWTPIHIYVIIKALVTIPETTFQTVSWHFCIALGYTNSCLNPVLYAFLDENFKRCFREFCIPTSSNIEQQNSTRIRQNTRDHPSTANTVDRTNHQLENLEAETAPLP
# assay context: CHO-K1, at 10 µM
# Description: Displacement of [3H]-DAMGO from human mu opioid receptor transfected in CHOK1 cells at 10 uM after 60 mins relative to control
The label depends only on inhibition: 1 if it is at least 20%, -1 if it is smaller.

smiles_input=C[C@@H]1C/C=C/CCCCC(=O)Cc2cc(O)cc(O)c2C(=O)O1 target="Mu-type opioid receptor (Homo sapiens) (UniProt P35372)" answer_label=-1
smiles_input=COc1cc(O)c2c(c1)CC(=O)CCCC(=O)CCC[C@@H](C)OC2=O target="Mu-type opioid receptor (Homo sapiens) (UniProt P35372)" answer_label=1
smiles_input=C[C@@H]1CCCC(=O)CCCC(=O)Cc2cc(O)cc(O)c2C(=O)O1 target="Mu-type opioid receptor (Homo sapiens) (UniProt P35372)" answer_label=1
smiles_input=COc1cc(O)c2c(c1)CC(=O)CCCC/C=C/C[C@@H](C)OC2=O target="Mu-type opioid receptor (Homo sapiens) (UniProt P35372)" answer_label=1
smiles_input=C[C@@H]1C[C@H]2O[C@@H]2/C=C\C=C\C(=O)Cc2c(Cl)c(O)cc(O)c2C(=O)O1 target="Mu-type opioid receptor (Homo sapiens) (UniProt P35372)" answer_label=1

###

# target: Delta-type opioid receptor (Homo sapiens)
# assay notes: Agonist activity at human delta opioid receptor transfected in CHOK1 cells after 60 mins by [35S]GTPgammaS binding assay
pEC50: −log10 of the molar value.
reported endpoint: pEC50

smiles_input=COc1cc(O)c2c(c1)CC(=O)CCCC(=O)CCC[C@@H](C)OC2=O experimental_value=6.62

###

Entries and their inhibition values follow.
# target: UniProtKB P41145
# Sequence (P41145 whole entry): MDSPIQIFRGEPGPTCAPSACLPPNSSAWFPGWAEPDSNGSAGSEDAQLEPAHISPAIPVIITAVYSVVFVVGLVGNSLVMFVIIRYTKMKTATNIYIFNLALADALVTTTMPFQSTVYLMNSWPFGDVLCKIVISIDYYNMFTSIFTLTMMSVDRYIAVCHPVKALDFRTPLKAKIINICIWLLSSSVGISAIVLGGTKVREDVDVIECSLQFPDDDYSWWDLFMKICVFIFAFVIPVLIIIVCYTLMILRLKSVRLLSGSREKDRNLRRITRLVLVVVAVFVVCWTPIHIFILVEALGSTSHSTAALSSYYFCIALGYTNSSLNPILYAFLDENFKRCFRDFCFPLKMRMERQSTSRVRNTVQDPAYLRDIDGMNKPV
# assay context: CHO-K1, at 10 µM
# Description: Displacement of [3H]-U-69593 from human kappa opioid receptor transfected in CHOK1 cells at 10 uM after 60 mins relative to control
reported endpoint: inhibition (%)

smiles_input=C[C@@H]1CCCC(=O)CCCC(=O)Cc2cc(O)cc(O)c2C(=O)O1 units=% experimental_value=8.1
smiles_input=COc1cc(O)c2c(c1)CC(=O)CCCC/C=C/C[C@@H](C)OC2=O units=% experimental_value=11.4
smiles_input=C[C@@H]1C/C=C/CCCCC(=O)Cc2cc(O)cc(O)c2C(=O)O1 units=% experimental_value=24.7
smiles_input=COc1cc(O)c2c(c1)CC(=O)CCCC(=O)CCC[C@@H](C)OC2=O units=% experimental_value=32.7

###

# target: Delta-type opioid receptor (Homo sapiens, UniProt P41143)
# Sequence (P41143 whole entry): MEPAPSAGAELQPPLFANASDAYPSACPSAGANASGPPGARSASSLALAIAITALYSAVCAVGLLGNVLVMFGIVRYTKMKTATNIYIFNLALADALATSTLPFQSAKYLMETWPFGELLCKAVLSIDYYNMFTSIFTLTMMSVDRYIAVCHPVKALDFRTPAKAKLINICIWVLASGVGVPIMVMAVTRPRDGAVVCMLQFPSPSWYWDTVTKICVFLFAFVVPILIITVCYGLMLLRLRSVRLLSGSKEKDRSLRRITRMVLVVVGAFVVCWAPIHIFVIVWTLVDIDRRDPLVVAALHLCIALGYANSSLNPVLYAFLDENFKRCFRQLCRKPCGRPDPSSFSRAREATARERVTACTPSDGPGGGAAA
# assay notes: Displacement of [3H]-enkephalin from human delta opioid receptor transfected in CHOK1 cells after 60 mins
pKi: −log10 of the molar value.
reported endpoint: pKi

smiles_input=COc1cc(O)c2c(c1)CC(=O)CCCC(=O)CCC[C@@H](C)OC2=O experimental_value=5.14

###

# target: Delta-type opioid receptor (Homo sapiens, UniProt P41143)
# assay notes: Displacement of [3H]-enkephalin from human delta opioid receptor transfected in CHOK1 cells after 60 mins
pIC50: −log10 of the molar value.
reported endpoint: pIC50

smiles_input=COc1cc(O)c2c(c1)CC(=O)CCCC(=O)CCC[C@@H](C)OC2=O reported_endpoint=pIC50 experimental_value=4.84

Origin of values: ChEMBL document CHEMBL2375316
